# AC50 per entry for Sodium-dependent noradrenaline transporter (Homo sapiens, UniProt P23975)
MEASURED_PROPERTY: AC50

INSERT INTO results (compound, target_under_test, result_value) VALUES
  ('COCc1c(C(C)C)nc(C(C)C)c(/C=C/[C@@H](O)C[C@@H](O)CC(=O)O)c1-c1ccc(F)cc1', 'Sodium-dependent noradrenaline transporter (Homo sapiens, UniProt P23975)', '> 30 µM'),
  ('CCCCS(=O)(=O)N[C@@H](Cc1ccc(OCCCCC2CCNCC2)cc1)C(=O)O', 'Sodium-dependent noradrenaline transporter (Homo sapiens, UniProt P23975)', '> 30 µM'),
  ('CCC(C)(C)c1ccc(CC(C)CN2C[C@@H](C)O[C@@H](C)C2)cc1 (stereo not given in full)', 'Sodium-dependent noradrenaline transporter (Homo sapiens, UniProt P23975)', '> 30 µM'),
  ('Nc1ccc(S(=O)(=O)c2cnc(N)s2)cc1', 'Sodium-dependent noradrenaline transporter (Homo sapiens, UniProt P23975)', '> 30 µM'),
  ('Cc1cn([C@H]2C=C[C@@H](CO)O2)c(=O)[nH]c1=O', 'Sodium-dependent noradrenaline transporter (Homo sapiens, UniProt P23975)', '> 30 µM'),
  ('CC(=O)c1ccc2c(c1)N(CCCN(C)C)c1ccccc1S2', 'Sodium-dependent noradrenaline transporter (Homo sapiens, UniProt P23975)', '0.161 µM'),
  ('CCOc1ccccc1OCC1CNCCO1 (stereo not given)', 'Sodium-dependent noradrenaline transporter (Homo sapiens, UniProt P23975)', '0.362 µM'),
  ('N[C@H]1C(O)O[C@H](CO)[C@@H](O)[C@@H]1O (stereo not given in full)', 'Sodium-dependent noradrenaline transporter (Homo sapiens, UniProt P23975)', '> 30 µM'),
  ('Oc1ccccc1', 'Sodium-dependent noradrenaline transporter (Homo sapiens, UniProt P23975)', '> 30 µM'),
  ('NNc1nnc(NN)c2ccccc12 [DIHYDRALAZINE]', 'Sodium-dependent noradrenaline transporter (Homo sapiens, UniProt P23975)', '> 30 µM');

====

# TARGET_UNDER_TEST: Muscarinic acetylcholine receptor M2 (Homo sapiens, UniProt P08172); note: assay procedure not described here
# Sequence (P08172 whole entry): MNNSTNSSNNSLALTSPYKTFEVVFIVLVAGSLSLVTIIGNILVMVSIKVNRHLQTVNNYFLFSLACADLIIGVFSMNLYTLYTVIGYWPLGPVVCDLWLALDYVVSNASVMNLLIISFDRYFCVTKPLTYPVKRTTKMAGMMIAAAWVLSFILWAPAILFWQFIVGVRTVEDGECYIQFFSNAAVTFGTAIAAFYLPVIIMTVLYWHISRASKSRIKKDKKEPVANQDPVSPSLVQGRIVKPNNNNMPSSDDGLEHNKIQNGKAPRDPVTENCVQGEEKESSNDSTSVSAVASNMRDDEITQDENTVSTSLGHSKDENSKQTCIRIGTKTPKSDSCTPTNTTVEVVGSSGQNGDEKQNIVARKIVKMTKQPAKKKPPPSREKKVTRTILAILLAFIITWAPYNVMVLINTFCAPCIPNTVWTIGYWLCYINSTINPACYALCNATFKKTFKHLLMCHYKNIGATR
# Assay type: functional, cell-based
// values below are reported AC50
MEASURED_PROPERTY: AC50

INSERT INTO assay_data (molecule, target_under_test, measured_property, result_value) VALUES
  ('c1ccc([C@H]2CN3CCSC3=N2)cc1', 'Muscarinic acetylcholine receptor M2 (Homo sapiens, UniProt P08172)', 'AC50', '> 30 µM'),
  ('C#C[C@]1(O)CC[C@H]2[C@@H]3CCc4cc(OC5CCCC5)ccc4[C@H]3CC[C@@]21C', 'Muscarinic acetylcholine receptor M2 (Homo sapiens, UniProt P08172)', 'AC50', '> 10 µM'),
  ('O=C1Nc2ccc(Cl)cc2[C@@](C#CC2CC2)(C(F)(F)F)O1', 'Muscarinic acetylcholine receptor M2 (Homo sapiens, UniProt P08172)', 'AC50', '> 10 µM'),
  ('COc1ccc(-c2ccc3cc(C(=O)O)ccc3c2)cc1C12CC3CC(CC(C3)C1)C2', 'Muscarinic acetylcholine receptor M2 (Homo sapiens, UniProt P08172)', 'AC50', '> 30 µM'),
  ('CCCSc1ccc2nc(NC(=O)OC)[nH]c2c1', 'Muscarinic acetylcholine receptor M2 (Homo sapiens, UniProt P08172)', 'AC50', '> 10 µM'),
  ('CNS(=O)(=O)Cc1ccc2[nH]cc(CCN(C)C)c2c1', 'Muscarinic acetylcholine receptor M2 (Homo sapiens, UniProt P08172)', 'AC50', '> 30 µM'),
  ('C[C@H](CSC(=O)c1ccccc1)C(=O)N1C[C@@H](Sc2ccccc2)C[C@H]1C(=O)O', 'Muscarinic acetylcholine receptor M2 (Homo sapiens, UniProt P08172)', 'AC50', '> 10 µM'),
  ('Clc1ccc2nsnc2c1NC1=NCCN1', 'Muscarinic acetylcholine receptor M2 (Homo sapiens, UniProt P08172)', 'AC50', '> 30 µM'),
  ('CC(=O)O[C@H]1CC[C@@]2(C)C(=CC[C@@H]3[C@@H]2CC[C@]2(C)C(c4cccnc4)=CC[C@@H]32)C1 [ABIRATERONE ACETATE]', 'Muscarinic acetylcholine receptor M2 (Homo sapiens, UniProt P08172)', 'AC50', '> 30 µM'),
  ('CCOC(=O)OC(C)OC1=C(C(=O)Nc2ccccn2)N(C)S(=O)(=O)c2ccccc21 (stereo not drawn)', 'Muscarinic acetylcholine receptor M2 (Homo sapiens, UniProt P08172)', 'AC50', '> 30 µM'),
  ('CCCc1nc(C(C)(C)O)c(C(=O)OCc2oc(=O)oc2C)n1Cc1ccc(-c2ccccc2-c2nnn[nH]2)cc1', 'Muscarinic acetylcholine receptor M2 (Homo sapiens, UniProt P08172)', 'AC50', '> 10 µM'),
  ('O=C(O)CCCCCCNC1c2ccccc2CCc2ccccc21', 'Muscarinic acetylcholine receptor M2 (Homo sapiens, UniProt P08172)', 'AC50', '> 30 µM'),
  ('CN1CCC(=C2c3ccccc3CCc3sccc32)CC1', 'Muscarinic acetylcholine receptor M2 (Homo sapiens, UniProt P08172)', 'AC50', '0.123 µM'),
  ('Brc1c(NC2=NCCN2)ccc2nccnc12', 'Muscarinic acetylcholine receptor M2 (Homo sapiens, UniProt P08172)', 'AC50', '> 30 µM'),
  ('C#C[C@]1(O)CC[C@H]2[C@@H]3CCC4=Cc5oncc5C[C@]4(C)[C@H]3CC[C@@]21C', 'Muscarinic acetylcholine receptor M2 (Homo sapiens, UniProt P08172)', 'AC50', '> 10 µM'),
  ('CC1(C)NC(=O)N(c2ccc([N+](=O)[O-])c(C(F)(F)F)c2)C1=O [NILUTAMIDE]', 'Muscarinic acetylcholine receptor M2 (Homo sapiens, UniProt P08172)', 'AC50', '> 30 µM'),
  ('CCCCCNC(=N)N/N=C/c1c[nH]c2ccc(OC)cc12', 'Muscarinic acetylcholine receptor M2 (Homo sapiens, UniProt P08172)', 'AC50', '> 10 µM'),
  ('COc1ccccc1OCCNCC(O)c1ccc(C)c(S(N)(=O)=O)c1 (stereo not drawn)', 'Muscarinic acetylcholine receptor M2 (Homo sapiens, UniProt P08172)', 'AC50', '> 30 µM');
